Source listed as the supplement of paper PMC7877785.

# experiment_notes: self-splicing fitness, log relative to wild type (ln ratio); higher = more splicing; Tetrahymena group I intron in knt gene, E. coli kanamycin selection, DiMSum; sequences stand for … in CUCUCU…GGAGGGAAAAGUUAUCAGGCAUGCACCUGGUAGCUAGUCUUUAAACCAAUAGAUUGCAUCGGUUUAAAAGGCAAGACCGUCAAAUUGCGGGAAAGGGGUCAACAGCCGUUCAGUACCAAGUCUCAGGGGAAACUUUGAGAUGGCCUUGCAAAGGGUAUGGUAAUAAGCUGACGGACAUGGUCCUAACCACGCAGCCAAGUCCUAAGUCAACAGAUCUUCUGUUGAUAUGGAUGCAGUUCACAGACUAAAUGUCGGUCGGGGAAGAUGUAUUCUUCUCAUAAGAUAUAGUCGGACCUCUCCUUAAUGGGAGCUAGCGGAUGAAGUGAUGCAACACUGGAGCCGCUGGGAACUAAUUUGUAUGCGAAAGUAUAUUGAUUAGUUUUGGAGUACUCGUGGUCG;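 also: selection with 25 µg/mL kanamycin versus none on LB agar overnight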
# condition: 30 °C
// reported self-splicing fitness (ln) for each item listed
Note: the reply should be a number with no unit written.

Examples from the recorded data:
biosequence=UGUCAGCAAUAUUACGGCUC data_value=-2.5
biosequence=AAGCAGCAAUAUUACGCUCG data_value=-1.67
biosequence=ACAAAGCAAUAUUACGAUUU data_value=-0.651
biosequence=UAUAAGCAAUAUUACGCGUA data_value=-1.84
biosequence=UGGCAGCAAUAUUACGAGUC data_value=-2.79

## Task For the sequence shown here, UAACAGCAAUAUUACGUGCU , give the reported self-splicing fitness (ln).
## Result -3.33

## Task Another sequence to look at: ACAUAGCAAUAUUACGCCGG
## Result -0.986

## Task Another sequence to look at: UGACAGCAAUAUUACGCCGG
## Result -0.618

## Task Another sequence to look at: AAAGAGCAAUAUUACGUUUU
## Result -2.46

## Task Another sequence to look at: CAACAGCAAUAUUACGCACU
## Result -2.34
